Molecular target: Polyketide synthase Pks13 (Mycobacterium tuberculosis (strain ATCC 25618 / H37Rv)) (UniProt I6X8D2)
Sequence (I6X8D2 whole entry): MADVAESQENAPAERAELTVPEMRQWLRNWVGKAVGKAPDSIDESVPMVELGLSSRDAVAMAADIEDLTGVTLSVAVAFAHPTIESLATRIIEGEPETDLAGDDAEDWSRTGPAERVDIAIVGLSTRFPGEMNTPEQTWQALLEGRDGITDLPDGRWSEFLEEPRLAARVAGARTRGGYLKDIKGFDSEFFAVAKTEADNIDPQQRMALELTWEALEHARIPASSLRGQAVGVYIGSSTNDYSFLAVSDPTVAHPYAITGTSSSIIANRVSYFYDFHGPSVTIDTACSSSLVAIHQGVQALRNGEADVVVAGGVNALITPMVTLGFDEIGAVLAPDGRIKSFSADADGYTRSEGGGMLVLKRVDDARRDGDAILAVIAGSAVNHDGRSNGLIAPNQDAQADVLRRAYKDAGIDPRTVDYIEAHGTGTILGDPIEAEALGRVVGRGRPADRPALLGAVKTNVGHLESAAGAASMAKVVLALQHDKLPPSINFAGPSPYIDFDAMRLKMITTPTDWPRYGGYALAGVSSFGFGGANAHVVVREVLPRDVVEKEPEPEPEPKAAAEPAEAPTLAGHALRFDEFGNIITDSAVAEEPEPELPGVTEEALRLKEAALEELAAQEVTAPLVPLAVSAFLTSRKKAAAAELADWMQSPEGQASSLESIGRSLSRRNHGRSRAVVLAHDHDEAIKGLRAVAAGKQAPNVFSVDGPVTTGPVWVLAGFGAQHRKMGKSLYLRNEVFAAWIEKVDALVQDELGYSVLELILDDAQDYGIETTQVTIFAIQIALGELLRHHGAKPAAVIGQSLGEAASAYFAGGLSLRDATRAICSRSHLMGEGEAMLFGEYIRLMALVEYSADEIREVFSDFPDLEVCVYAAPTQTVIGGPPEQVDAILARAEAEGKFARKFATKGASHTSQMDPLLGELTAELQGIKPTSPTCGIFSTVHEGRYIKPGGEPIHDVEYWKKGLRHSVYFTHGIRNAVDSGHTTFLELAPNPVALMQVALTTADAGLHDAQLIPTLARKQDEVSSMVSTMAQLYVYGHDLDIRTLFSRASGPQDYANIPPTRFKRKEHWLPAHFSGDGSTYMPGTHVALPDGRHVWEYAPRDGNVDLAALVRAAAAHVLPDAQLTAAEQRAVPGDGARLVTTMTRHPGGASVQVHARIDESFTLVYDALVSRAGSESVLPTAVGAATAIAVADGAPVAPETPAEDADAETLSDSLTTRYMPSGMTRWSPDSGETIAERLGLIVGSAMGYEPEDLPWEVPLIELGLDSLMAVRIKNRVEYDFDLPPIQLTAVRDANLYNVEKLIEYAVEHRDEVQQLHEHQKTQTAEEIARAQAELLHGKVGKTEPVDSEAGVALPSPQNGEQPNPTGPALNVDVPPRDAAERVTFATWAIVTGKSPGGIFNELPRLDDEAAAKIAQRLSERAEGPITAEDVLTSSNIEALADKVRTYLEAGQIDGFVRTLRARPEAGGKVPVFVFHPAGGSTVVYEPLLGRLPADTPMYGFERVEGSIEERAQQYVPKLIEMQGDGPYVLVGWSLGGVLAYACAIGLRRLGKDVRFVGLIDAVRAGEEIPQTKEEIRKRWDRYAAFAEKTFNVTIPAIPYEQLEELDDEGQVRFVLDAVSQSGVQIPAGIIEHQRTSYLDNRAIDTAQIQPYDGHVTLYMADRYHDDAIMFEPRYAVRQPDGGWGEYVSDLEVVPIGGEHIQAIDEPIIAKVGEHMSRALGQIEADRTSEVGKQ
Test: Mycobacterium tuberculosis Polyketide synthase 13 Thioesterase (PKS13)
Format: functional
Design: scale not given: in the data most compounds retested in dose-response had high values
Settings: 30 µM
Screen size: about 67,000 compounds; about 300 (0.45%) showed an effect of 50% or more. The list comes from a sample in which strong results are over-represented; it also holds close analogues and randomly drawn compounds.
Exercise: state measured Percent Effect for each of the compounds provided.
Numbers only, in %.

Task item: Which measured Percent Effect value corresponds to CC(C)CN1C[C@H]2C[C@H](C(=O)NC3CCC3)[C@@H](C1)O2 ?
Reply: 8.3

Task item: Suppose we examine the compound C1CCN(CCO[C@@H]2CC[C@H]3[C@H]2OCCN3CC2CCOCC2)C1 ; what Percent Effect value has been reported?
Reply: -4.73

Task item: Name the reported Percent Effect value associated with the compound O=C(Cn1ccc2cc(Br)ccc21)NC[C@@H]1CCCN2CCCC[C@H]12
Reply: -5.46

Task item: Please look up its Percent Effect: O=C(Nc1ccccc1)N1C[C@@H]2OCCN(C(=O)c3ccco3)[C@@H]2C1
Reply: -42.5

Task item: I would be grateful if you could share the reported Percent Effect for CN1CCCC1c1cccc(Cc2ccccc2F)n1 (stereo not given) .
Reply: -56.2

Task item: Can you share its Percent Effect? I mean this compound: Cn1cc(NC(=O)c2ccccn2)cc(Cl)c1=O
Reply: -33.4

Could you tell me Percent Effect for each of these compounds? They are listed below.
1. Fc1cnc(N2C[C@@H](OCC3CCOCC3)[C@H]3OCCC[C@H]32)nc1
2. c1ccc(-c2cc(CN3C[C@@H]4CC[C@H](C3)N(CC3CCC3)C4)on2)cc1
3. COC(=O)c1cc(NC2CCN(CC(F)(F)F)C2=O)ccc1C (stereo not given)
4. Cc1cc(CN2CCN(C(=O)C(C)C)[C@@H]3CS(=O)(=O)C[C@@H]32)ccc1F
5. Cc1occc1C(=O)N1C[C@@H]2CCCO[C@@H]2[C@H](NC(=O)CC2CC2)C1

Reply:
1: -17.1; 2: -48.3; 3: 9.8; 4: -6.06; 5: -0.923

Hey, quick one: what's Percent Effect for each of these?
1. c1ccc(CCCN2CC[C@H](c3nnc(-c4cccnc4)o3)C2)cc1
2. CC(C)c1n[nH]c(C(=O)Nc2cc[nH]n2)c1Br
3. c1ccc2oc(CN3CCCCC3Cn3cncn3)nc2c1 (stereo not given)
4. CCCNC(=O)CCNc1cncc(-n2nc(C)cc2C)n1
5. CC(C)c1n[nH]c(C(=O)Nc2ccccn2)c1Br
6. Cc1nnc([C@@H]2CC[C@@H]3[C@@H](CCN3S(=O)(=O)c3cccnc3)O2)o1
7. CCc1cccc2cc(CNCCCN3CCOCC3)c(=O)[nH]c12

Reply:
-20
-20
-0.333
52
-9.25
-18.5
16.5

# batch size: 7; output Percent Effect per entry
1. CC(=O)N1C[C@H]2CN(CC3CC3)C(=O)[C@H]2C1
2. CCC(=O)N1CCCCC[C@@H]2[C@@H]1[C@H](c1cccc(F)c1)CN2C
3. c1csc(-c2noc(CCCN3CCCC3Cn3cccn3)n2)c1 (stereo not given)
4. CN(C)C(=O)COC[C@@H]1CC[C@H]2[C@H](CCN2c2ncccn2)O1
5. CS(=O)(=O)N1CCCC1c1cccc(Cc2ccccc2F)n1 (stereo not given)
6. Cn1cc(Br)c(C(=O)NCCn2cc(Br)cn2)n1
7. CC(C)CN1C(=O)CO[C@@H]2CN(C(=O)N3CCOCC3)C[C@H]21

Reply:
1. -18.6
2. -27
3. -2.79
4. -0.596
5. 51.8
6. -18.6
7. -27.7

Provide Percent Effect values for the following items, in order.
1. Cc1cscc1C(=O)Nc1cc(CSCCO)ccn1
2. CN(C(=O)c1ccc(-n2ncc(C#N)c2N)cc1)C1CCCC1

Reply:
1. 11.8
2. -1.63
